Target: T1, GST-WWP1.2
T1 construct: Coated on polystyrene plates; also called second WW domain of WWP1; WWP1 WW domain 2; not shown: glutathione S-transferase (GST) fusion partner
T1 sequence (chain, as listed by the source): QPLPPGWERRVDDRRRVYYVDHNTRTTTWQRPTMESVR
Assay: TRF (DELFIA) plate assay, GST-WW domain coated at 30 µg/mL, titrated with biotinylated peptide
Where no end group is shown, it is not given here. The star is where a group is joined. Biotin = O=C1N[C@H]2[C@H](CS[C@H]2CCCCC(=O)*)N1; Ahx = NCCCCCC(=O)O
experimental-endpoint: binding result

# binder, reported-result
rows = [
    ("PADTPPPAYMPPDD (not fully specified (N-terminus); also: biotin with C6 linker, end not given here, also called Smad 5 peptide) [Smad5 PY motif peptide PADTPPPAYMPPDD]", "binds"),
    ("{Biotin-Ahx}-PADTPPPAYLPPED-NH2 (SMILES CC(C)C[C@H](NC(=O)[C@H](Cc1ccc(O)cc1)NC(=O)[C@H](C)NC(=O)[C@@H]1CCCN1C(=O)[C@@H]1CCCN1C(=O)[C@@H]1CCCN1C(=O)[C@@H](NC(=O)[C@H](CC(=O)O)NC(=O)[C@H](C)NC(=O)[C@@H]1CCCN1C(=O)CCCCCNC(=O)CCCC[C@@H]1SC[C@@H]2NC(=O)N[C@@H]21)[C@@H](C)O)C(=O)N1CCC[C@H]1C(=O)N1CCC[C@H]1C(=O)N[C@@H](CCC(=O)O)C(=O)N[C@@H](CC(=O)O)C(N)=O, also called Smad 1 PY peptide; Biotin-Ahx-PADTPPPAYLPPED-CONH2) [Smad1 PY motif peptide PADTPPPAYLPPED]", "no binding"),
    ("AGLTPPPGYLSEDG (not fully specified (N-terminus); also: biotin with C6 linker, end not given here, also called Smad 3 peptide) [Smad3 PY motif peptide AGLTPPPGYLSEDG]", "no binding"),
]
